# target.or.system: Peroxisome proliferator-activated receptor delta (Homo sapiens)
# Sequence (Q03181 whole entry): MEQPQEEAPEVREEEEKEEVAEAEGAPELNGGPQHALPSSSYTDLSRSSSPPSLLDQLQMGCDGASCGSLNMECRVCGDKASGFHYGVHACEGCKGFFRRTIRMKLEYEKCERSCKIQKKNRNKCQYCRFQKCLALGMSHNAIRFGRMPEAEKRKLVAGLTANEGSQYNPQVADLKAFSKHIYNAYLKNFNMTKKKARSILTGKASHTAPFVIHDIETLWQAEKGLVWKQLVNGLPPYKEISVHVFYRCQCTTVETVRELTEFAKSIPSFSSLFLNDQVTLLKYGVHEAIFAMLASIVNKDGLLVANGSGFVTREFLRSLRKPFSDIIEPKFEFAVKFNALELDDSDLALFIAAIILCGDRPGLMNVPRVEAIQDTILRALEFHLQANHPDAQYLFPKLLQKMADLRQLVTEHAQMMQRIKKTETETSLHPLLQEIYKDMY
# experiment.summary: Agonist activity at human PPARdelta assessed as transactivation activity
readout.kind: pEC50
Kindly note that pEC50 refers to -log10 of the concentration in mol/L and answer with the value alone.

Quick note, pEC50 for "CC[C@@H](Cc1ccc(OC)c(CNC(=O)c2ccc3ccc4cccc5ccc2c3c45)c1)C(=O)O" landed at 7.37

// provenance: ChEMBL document CHEMBL1955804
